TGT: T1, PDZD2_2, O15018
T1 sequence (O15018 329-429, limits assumed, looked up): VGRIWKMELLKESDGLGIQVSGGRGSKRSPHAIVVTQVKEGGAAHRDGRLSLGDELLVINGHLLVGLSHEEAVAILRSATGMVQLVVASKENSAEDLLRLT
TEST: holdup assay
Set-up: key: below the threshold = too weak to quantify, mostly under pKd 3.1 to 4
TEST CONDITIONS: plain residues with an end cap or a label only (N-terminal biotin on a linker: ado-ado)
VALUE KIND: pKd

[[record]]
binder = "MLPANYVEAI [NEB, P20929]"
value_kind = "pKd"
recorded_result = "below the threshold"

[[record]]
binder = "SAGADSETHC [SLCO1B1, Q9Y6L6]"
value_kind = "pKd"
recorded_result = 3.68

[[record]]
binder = "RSPVATATSC [DUSP5, Q16690]"
value_kind = "pKd"
recorded_result = "below the threshold"

[[record]]
binder = "RGKNRRQSIF [CDK18, Q07002]"
value_kind = "pKd"
recorded_result = "below the threshold"


Where these numbers come from: paper PMC9482650
